These measurements were taken from ChEMBL document CHEMBL1201862.

system: 786-0; assay: NCI tumour cell line growth inhibition, 48 h
Activity calls are given as the source filed them. Cut-off read from the data, not from the text of the source: active = GI50 up to about 1.1 µM and inactive = higher.
Response enum: active, inactive

Here's what some known entries look like.
O=C1/C(=C/c2ccccc2Cl)COc2ccc(Br)cc21 : inactive
CCCCOC(=O)NC(=O)c1cn(CCCOC(=O)NCCCCCCNC(=O)OCCCn2cc(C(=O)NC(=O)OCCCC)c(=O)[nH]c2=O)c(=O)[nH]c1=O : inactive
COc1ccc(C(=O)C2=NON3OC23C(=O)c2ccc(OC)cc2)cc1 (stereo not drawn) : inactive
c1ccc(COc2cccc3cccnc23)cc1 : inactive

# ---- query compound ----
Query string: Look up the recorded call for C/C(=N\O)C(CN1CCCCC1)C(c1ccccc1)c1c(O)c2ccccc2oc1=O (stereo not drawn) in this test.
Result string: inactive

---

Listed here are molecules together with their documented GI50.
tested on: M14; assay: NCI tumour cell line growth inhibition, 48 h
Active and inactive are the calls of the source. Rule as the data show it: active = GI50 up to about 1.1 µM and inactive = higher.

O=C(Nc1c(O)[nH]c(=S)[nH]c1=O)c1ccccc1F : > 100 µM (inactive)

Query string: Requested read-out: GI50. Entry: `Nc1ccc(/C=C/c2ccnc3ccccc23)cc1`
Result string: 20.2 µM (inactive)

Query string: Requested read-out: GI50. Entry: `N#CCC(=O)Nc1ccccc1O`
Result string: > 100 µM (inactive)

---

test system: NCI-H23; experiment: NCI tumour cell line growth inhibition, 48 h
Active and inactive are the calls of the source. Rule as the data show it: active = GI50 up to about 1.1 µM and inactive = higher.
Response enum: active, inactive

Here's what some known entries look like.
CC(C)C1CC(CO)(CNc2nc(N)nc(Cl)c2/C=N\O)C1 (centres undefined) : active
CN(C)CCSc1nccc(-c2ccc(-c3ccnc(SCCN(C)C)n3)s2)n1 : inactive
CSC1(Cc2ccccn2)C(=O)Nc2cccc([N+](=O)[O-])c21 (centres undefined) : inactive
COC(=O)[C@]1(C)CCC[C@]2(C)[C@H]3CC[C@]4(C(C)C)OO[C@@H](O4)[C@]34O[C@@H]4C[C@H]21 : inactive

Query string: Look up the recorded call for `Cc1nc(C)c(C(=O)Nc2cccc3c2C(=O)NC3=O)cc1C(=O)Nc1cccc2c1C(=O)NC2=O` in this test.
Result string: inactive

---

test system: MDA-MB-435; test: NCI tumour cell line growth inhibition, 48 h
Calls of active or inactive are those of the source. No stated cut-off is given here; in the data, active = GI50 up to about 1.1 µM and inactive = higher.
Listed here are compounds together with their documented GI50.

O=c1[nH]c2c(c(=O)[nH]1)SSC2 : 2.04 µM (inactive)

Query string: Requested read-out: GI50. Entry: `CCN(CCCN(CC)C(=O)N[C@@H](Cc1ccccc1)C(=O)NC)C(=O)N[C@@H](Cc1ccccc1)C(=O)NC`
Result string: > 100 µM (inactive)

Query string: Requested read-out: GI50. Entry: O=C(CC(C(=O)c1ccsc1)c1cccs1)c1ccsc1 (stereo not drawn)
Result string: 34.8 µM (inactive)

Query string: Requested read-out: GI50. Entry: `O=C1Sc2cc3ccccc3cc2C(=O)Sc2ccc(Br)cc21`
Result string: 3.48 µM (inactive)

Query string: Requested read-out: GI50. Entry: `C=C(Br)C[N+]12CN3CN(CN(C3)C1)C2`
Result string: > 100 µM (inactive)

Query string: Requested read-out: GI50. Entry: `O=[As]O`
Result string: > 100 µM (inactive)

Query string: Requested read-out: GI50. Entry: `CCOC(=O)c1c(N2CCOCC2)[nH]c(=O)c(C(c2ccco2)c2c(O)c(C(=O)OCC)c(N3CCOCC3)[nH]c2=O)c1O`
Result string: > 100 µM (inactive)

Query string: Requested read-out: GI50. Entry: `Cc1cccc2c(N)c3cccc(C(=O)NCC[N+]4(Cc5ccc([N+](=O)[O-])cc5)CCOCC4)c3nc12`
Result string: 80.5 µM (inactive)

---

system: SF-539; test: NCI tumour cell line growth inhibition, 48 h
The source made the active and inactive calls. Cut-off read from the data, not from the text of the source: active = GI50 up to about 1.1 µM and inactive = higher.
value-kind: GI50

Example results:
OCc1ccc2c(c1)CC1(Cc3ccccc3C1)C2 : 18.3 µM (inactive)
N#CC(NNC(=O)Cc1ccccc1)c1ccccc1O (configuration not stated) : 16.4 µM (inactive)

Query string: Requested read-out: GI50. Entry: `CCOC(=O)c1c(N2CCOCC2)[nH]c(=O)c(C(c2ccco2)c2c(O)c(C(=O)OCC)c(N3CCOCC3)[nH]c2=O)c1O`
Result string: > 100 µM (inactive)

Query string: Requested read-out: GI50. Entry: `CN(C)CCC(=O)/C=C\c1ccccc1`
Result string: 16.8 µM (inactive)

Query string: Requested read-out: GI50. Entry: Cc1ccc([N+](=O)[O-])cc1S(=O)(=O)Nc1ccc(C2=NNC(c3cccs3)C2)cc1 (configuration not stated)
Result string: 48.1 µM (inactive)

Query string: Requested read-out: GI50. Entry: `N#Cc1c(N)nc2[nH]nc(N)c2c1-c1ccccc1`
Result string: 7.16 µM (inactive)

Query string: Requested read-out: GI50. Entry: `CCn1nc(-c2ccccc2)c2c1N(C)c1ccccc1-n1c(-c3ccccc3)nnc1-2`
Result string: 22.5 µM (inactive)

---

system: KM12; assay: NCI tumour cell line growth inhibition, 48 h
The source made the active and inactive calls. No stated cut-off is given here; in the data, active = GI50 up to about 1.1 µM and inactive = higher.
Response enum: yes (1) (active), no (0) (inactive)

Here's what some known entries look like.
C=CCCCCCCCCCCCC1CCC(CC)N1 (stereo not given) : no (0)
CCCCCCCCCCCCCCCC(=O)ON1C(=S)NC(C)(c2ccccc2)C1=S (stereo not given) : no (0)
O=C(O)\C=C/C=C/C=C/C=C/C(=O)O : no (0)
CCOc1ccc2c(c1)C(/C(C(Cl)=C(Cl)Cl)=[N+](/[O-])OC(=O)c1ccccc1)=N2 : no (0)
NC1(C(=O)O)CCc2ccc(N(CCCl)CCCl)cc2C1 (stereo not given) : no (0)
C[C@]12CC[C@@H]3c4cc(OCC(F)(F)F)c(O)cc4CC[C@H]3[C@@H]1CC[C@@H]2O : no (0)
CCCCCCCCCCCCCCCC(=O)OCC(COP(=O)(O)OCCNC(=O)CCSSc1ccccn1)OC(=O)CCCCCCCCCCCCCCC (stereo not given) : no (0)
CCOC(=O)C1=C(C)NC(=O)NC1c1ccc(N(CCCl)CCCl)cc1Cl (stereo not given) : no (0)
CC(C)(C)OC(=O)n1c(-c2ccccc2F)cc(=O)c2cc3c(cc21)OCO3 : yes (1)
CCCCCCCC(CC(=O)NC(CO)C(=O)NC(CO)CC(C)C)OC(=O)CC(CCCCCCC)OC(=O)CC(CCCCCCC)OC1OC(C)C(O)C(OC2OC(C)C(O)C(O)C2OC(C)=O)C1O (stereo not given) : no (0)

# ---- query molecule ----
Query string: Look up the recorded call for `COc1ccc(/N=C/c2ccc(N(CCC#N)S(=O)(=O)c3ccccc3)cc2)cc1` in this test.
Result string: no (0)

---

test system: UO-31; assay: NCI tumour cell line growth inhibition, 48 h
Activity calls are given as the source filed them. Cut-off read from the data, not from the text of the source: active = GI50 up to about 1.1 µM and inactive = higher.
value-kind: GI50

Example results:
Cc1ccsc1C(=O)C(CC(=O)c1cccs1)c1ccsc1 (centres undefined) : 54.1 µM (inactive)
CC(C)(C)OC(=O)/C=C/[C@@H](CCC(=O)/C=C/[C@H](/C=C\CCCC(=O)O)NC1(c2ccccc2)c2ccccc2-c2ccccc21)O[Si](C)(C)C(C)(C)C : 15.2 µM (inactive)
OCC1OC(n2nc(-c3ccccc3)nc2-c2cnccn2)C(O)C1O (centres undefined) : > 100 µM (inactive)
CC(C)(C)c1ccc(-c2nc3ccc(Cl)cc3c(=O)o2)cc1 : 21.2 µM (inactive)
O=C(NNC(=S)NCc1ccccc1)C12CC3CC(CC(C3)C1)C2 : 50.1 µM (inactive)

Query string: Requested read-out: GI50. Entry: `NS(=O)(=O)c1ccc(NC(=S)NC=C2C(=O)c3ccccc3C2=O)cc1`
Result string: 22.6 µM (inactive)

Query string: Requested read-out: GI50. Entry: CN(C)CC1CCC/C(=C\c2ccc(OC(=O)/C=C/c3ccccc3)cc2)C1=O (centres undefined)
Result string: 1.83 µM (inactive)

Query string: Requested read-out: GI50. Entry: COC(=O)c1ccc(C)cc1CC1Cc2cccc(C)c2C1=O (centres undefined)
Result string: 13.4 µM (inactive)

Query string: Requested read-out: GI50. Entry: CCOC(=O)NC(Nc1ccc(S(=O)(=O)Nc2ncccn2)cc1)(C(=O)OCC)C(F)(F)F (centres undefined)
Result string: > 100 µM (inactive)

---

tested on: SF-295; experiment: NCI tumour cell line growth inhibition, 48 h
Active and inactive are the calls of the source. Cut-off read from the data, not from the text of the source: active = GI50 up to about 1.1 µM and inactive = higher.
Listed here are compounds together with their documented GI50.

Example results:
CCCCCCCCCCCCCC(=O)OCC1OC(n2cc(F)c(=O)[nH]c2=O)C(N)C(OC(=O)CCCCCCCCCCCCC)C1O (stereo not given) : > 100 µM (inactive)
NC(=O)N/N=C(/Cc1nc2ccc(C(=O)c3ccccc3)cc2nc1O)C(=O)Nc1ccc(C(F)(F)F)cc1[N+](=O)[O-] : 74.8 µM (inactive)
O=c1[nH]c2c(c(=O)[nH]1)SSC2 : 18.5 µM (inactive)
Clc1nc(-c2ccccc2)nc(Cl)c1Cl : 17.3 µM (inactive)
c1n[nH]cc1C12C3C4C5C3C1C5C42 (stereo not given) : > 100 µM (inactive)
Cc1nc(-c2cc3cc(Cl)ccc3oc2=O)cc2c1c(=O)oc1ccc(Cl)cc12 : > 100 µM (inactive)

Query string: Requested read-out: GI50. Entry: CCCC/C=C1\CCC(C)(CN(C)C)C1=O (stereo not given)
Result string: > 100 µM (inactive)

Query string: Requested read-out: GI50. Entry: C[C@]12CCC(=O)C=C1CC[C@@H]1[C@@H]2[C@@H](O)C[C@@]2(C)[C@H]1CC[C@]2(O)C(=O)CO [HYDROCORTISONE]
Result string: > 100 µM (inactive)

Query string: Requested read-out: GI50. Entry: `O=C1/C(=C/c2ccccc2Cl)COc2ccc(Br)cc21`
Result string: 37.6 µM (inactive)

Query string: Requested read-out: GI50. Entry: `N#CC(C#N)=CNC(=S)c1ccncc1`
Result string: > 100 µM (inactive)

Query string: Requested read-out: GI50. Entry: `N#Cc1sc2c(c1OC(=O)c1ccc(Cl)cc1Cl)c(=O)n(-c1ccccc1)c(=S)n2-c1ccccc1`
Result string: 28.2 µM (inactive)

Query string: Requested read-out: GI50. Entry: `COc1cccc(NC(=O)c2c(N)n[nH]c2SC)c1`
Result string: > 100 µM (inactive)

Query string: Requested read-out: GI50. Entry: `COc1c(-c2cc(C)c(Cl)c(=O)[nH]2)c(O)c(OC)c2occc12`
Result string: > 100 µM (inactive)

Query string: Requested read-out: GI50. Entry: `O=C1Cc2c(-c3ccc(Cl)cc3)cc(-c3ccccc3)nc2-c2ccccc2N1`
Result string: 6.38 µM (inactive)

Query string: Requested read-out: GI50. Entry: `CO/C=C/C=C(\C#N)C(=O)OC`
Result string: > 100 µM (inactive)
